target: HLA-A*0201 (Homo sapiens, UniProt P04439, D140Y/D185E/D98H/E176V/E277Q/G131W/G231S/I119V/I121R/I166T/I218V/L300P/L318F/N151K/N90K/P208A/P217A/Q86G/Q94H/R138H/R169H/T345S); assay: HLA class I binding assay, purified HLA, inhibition of 125I-labelled probe peptide; conditions: A*[…], A2 supermotif cross-reactive binding data
Property Label: IC50 (nM)
Give bare numbers, in nM.

[[record]]
compound = "CC(C)C[C@H](NC(=O)[C@H](CO)NC(=O)[C@@H](NC(=O)[C@H](CS)NC(=O)[C@H](CCC(N)=O)NC(=O)[C@H](CC(C)C)NC(=O)[C@@H](N)CO)C(C)C)C(=O)N[C@@H](Cc1c[nH]cn1)C(=O)N[C@H](C(=O)O)C(C)C [Peptide 1418.19]"
value_observed = 56


Parameters: items (list). Returns: IC50 for each item.
1. CC(C)C[C@H](NC(=O)[C@H](CC(=O)O)NC(=O)CNC(=O)[C@H](CCC(=O)O)NC(=O)[C@@H]1CCCN1C(=O)[C@H](CC(C)C)NC(=O)CN)C(=O)N[C@H](C(=O)N[C@@H](Cc1ccc(O)cc1)C(=O)N[C@H](C(=O)O)C(C)C)C(C)C [Peptide 1389.22]
2. CSCC[C@H](NC(=O)[C@H](Cc1ccccc1)NC(=O)[C@H](CCC(=O)O)NC(=O)[C@@H](NC(=O)[C@@H](NC(=O)[C@@H](N)CCCCN)C(C)C)[C@@H](C)O)C(=O)N[C@@H](CC(C)C)C(=O)N[C@@H](CS)C(=O)N[C@H](C(=O)O)C(C)C [Peptide 1418.21]
3. CC(C)C[C@H](NC(=O)[C@H](CC(=O)O)NC(=O)CNC(=O)[C@H](CCC(=O)O)NC(=O)[C@@H]1CCCN1C(=O)[C@@H](NC(=O)CN)[C@@H](C)O)C(=O)N[C@H](C(=O)N[C@@H](Cc1ccc(O)cc1)C(=O)N[C@H](C(=O)O)C(C)C)C(C)C [Peptide 1418.29]

42
53
313
